All figures here come from patent US20250215104A1.

Target: T1, human soluble urokinase plasminogen activator receptor (suPAR) (human, UniProt Q03405 23-303, limits assumed)
T1 construct: Column head says only 'human'; also called human suPAR; hsuPAR
T1 sequence (Q03405 23-303 limits assumed): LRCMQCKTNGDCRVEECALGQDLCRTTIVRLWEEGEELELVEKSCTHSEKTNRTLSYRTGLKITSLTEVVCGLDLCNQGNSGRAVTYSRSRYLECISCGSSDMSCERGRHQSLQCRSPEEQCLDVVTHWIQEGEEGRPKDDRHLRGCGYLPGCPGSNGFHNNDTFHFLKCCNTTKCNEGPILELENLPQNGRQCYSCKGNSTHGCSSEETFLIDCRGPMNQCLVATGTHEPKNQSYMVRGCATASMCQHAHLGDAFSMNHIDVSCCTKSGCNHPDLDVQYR
Assay: BLI (Octet) off-rate screen of scFv clones
assay.readout: koff (s⁻¹)
Numeric only. Scale: s⁻¹

binder	value.units	recorded.result
suPAR_DB02_G10 (scFv, V domains shown, scFv clone from phage display) VH: QVQLVQSGAEVKKPGASVKVSCKASGYTFTNYYMHWVRQAPGQGLEWMGWIDPENGSTIYDQKFQGRVTMTRDTSTSTVYMELSSLRSEDTAVYYCARGYDVDWFVYWGQGTLVTVSS VL: DIQMTQSPSSLSASVGDRVTITCRARQSVSYMYWYQQKPGKAPKLLIYRTSNLETGVPSRFSGSGSGTDFTLTISSLQPEDFATYYCQQYHSYPPTFGGGTKVEIK	s⁻¹	0.00562

Moving on to another binder below.
GET /value?item= suPAR_DB02_E06 (scFv, V domains shown, scFv clone from phage display) VH: QVQLVQSGAEVKKPGASVKVSCKASGYTFTGYYMHWVRQAPGQGLEWMGWIDPENGNTIYDQKFQGRVTMTRDTSTSTVYMELSSLRSEDTAVYYCARGYDVDWFVYWGQGTLVTVSS VL: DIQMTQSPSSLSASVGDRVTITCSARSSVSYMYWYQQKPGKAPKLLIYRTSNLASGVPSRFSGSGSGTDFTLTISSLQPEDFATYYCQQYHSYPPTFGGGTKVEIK &field=koff returns 0.00239
